Field: IC50. Provide a value for each of the compounds that follow.
assay.target: recombinant SvelOBP15
assay.name: Fluorescence competitive binding assay with 1-NPN as fluorescent reporter
setup.conditions: 1-NPN 2 μmol/L; competitor 2 to 20 μmol/L; concentration halving the fluorescence of 1-NPN

# return recorded IC50 for entry CCCCCCCCCCCCCCC [Pentadecane]
> 20 µM

For the compound C=CC(C)(O)CCC=C(C)C (stereo not shown) [Linalool] , give its reported IC50.
> 20 µM

Assign IC50 to the following record: CCCCCCCCCCCC [Dodecane]
> 20 µM

Answer with the recorded IC50 of CCCCCCCCC=O [Nonanal] only.
> 20 µM

Fill in IC50 for record CC(C)COC(=O)c1ccccc1C(=O)OCC(C)C [Diisobutyl phthalate]
15.8 µM

Respond only with IC50 recorded for COC(=O)c1ccccc1O [Methyl salicylate]
> 20 µM

State, in one line, measured IC50 of CCCCCCCCCCCCCCCC(=O)O [Palmitic acid]
> 20 µM

====

assay.target: recombinant SvelOBP15
assay.name: 1-NPN titration (binding curve, Scatchard plot)
setup.conditions: titration with increasing 1-NPN, read-out: dissociation constant of 1-NPN
observable: pKd
Reminder that pKd is minus the log10 of a molar concentration.

Answer with reported pKd of `c1ccc(Nc2cccc3ccccc23)cc1`
5.33

====

assay.target: recombinant SvelOBP15
assay.name: Fluorescence competitive binding assay with 1-NPN as fluorescent reporter
setup.conditions: calculated from IC50; 1-NPN 2 μmol/L; mean ± SE; read-out: Ki (dissociation constant)
Method: The whole ORF of SvelOBP15 was successfully validated by RT-PCR and Sanger sequencing and then synthesized (without the signal peptide-encoding region) by Sangon Biotech (Shanghai, China). […] Fluorescence competitive binding assays were performed as reported previously ([Liu et al., 2015]). This assay was conducted on a Hitachi F-7000 fluorescence spectrophotometer with a 1-cm light path quartz cuvette and 10-nm slits for both excitation and emission. […]
observable: Ki (µM)
Respond numerically; units are µM and should not be typed.

Return reported Ki. Input compound: CC(C)=CCC/C(C)=C/CC/C(C)=C/CO [(E,E)-Farnesol]
7.36

Report Ki for C=CC(C)(O)CCC=C(C)CCC=C(C)C (mixture of isomers)
12.9

Determine its reported Ki: CC(C)COC(=O)c1ccccc1C(=O)OCC(C)C [Diisobutyl phthalate]
12.6

Please report Ki for the following compound: `C=C(C)[C@H]1CC=C(C)CC1`
11.7

Attribution: paper PMC9193972
